# ASSAYED_TARGET: KIT V559D (Homo sapiens, UniProt P10721, V559D)
# Sequence (P10721 546-976 V559D limits assumed): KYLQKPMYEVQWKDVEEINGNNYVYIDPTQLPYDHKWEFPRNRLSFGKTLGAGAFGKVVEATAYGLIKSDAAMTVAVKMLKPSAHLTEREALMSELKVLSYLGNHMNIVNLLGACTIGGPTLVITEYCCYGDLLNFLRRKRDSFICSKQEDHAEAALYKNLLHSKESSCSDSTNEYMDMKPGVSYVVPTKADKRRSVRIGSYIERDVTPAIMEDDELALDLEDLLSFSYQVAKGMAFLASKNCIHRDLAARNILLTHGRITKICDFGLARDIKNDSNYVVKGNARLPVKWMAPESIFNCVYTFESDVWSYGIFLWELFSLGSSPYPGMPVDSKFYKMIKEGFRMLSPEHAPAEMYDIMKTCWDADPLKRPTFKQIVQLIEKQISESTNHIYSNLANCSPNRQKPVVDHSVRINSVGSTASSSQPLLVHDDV
# PROTOCOL_SUMMARY: KIT auto-phosphorylation in KIT V559D overexpressed Colo320DM cells
# Assay type: cell-based
# Set-up: expressed in transfected cells; host or cells: Colo320DM (transient)
# TEST_SETTINGS: COLO 320DM-KIT-V559D; read-out: EC50 P-CKIT Y719
ASSAY_ENDPOINT: pEC50
// pEC50: -log10(molar conc.)

# input compound: "COc1cc(C(=O)NCC(=O)Nc2ccc3c(/C=C/c4ccccn4)n[nH]c3c2)cc(OC)c1OC" ; wanted: its pEC50 6.62
